Biological target: T1, CD27 protein (His-tagged, Sino Biological Inc. 10039-H08B1) (human, UniProt P26842 20-192)
T1 construct: bought; coated onto ELISA plates; also called human CD27; recombinant protein; not shown: His tag
T1 sequence (looked up): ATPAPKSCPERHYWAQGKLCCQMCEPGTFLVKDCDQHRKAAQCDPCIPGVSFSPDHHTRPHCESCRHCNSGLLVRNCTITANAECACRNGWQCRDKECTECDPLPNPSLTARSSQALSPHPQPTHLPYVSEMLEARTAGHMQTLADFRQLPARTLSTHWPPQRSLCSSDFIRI
Experiment: ELISA on coated His-tagged CD27; also: test concentration or dose not given here
recorded_endpoint: ELISA [abs. corr.] (abs. corr.)
Answer in abs. corr., number only, no unit symbol.

Asked: Complete the entry with ELISA [abs. corr.] for P018.S.05.A.D04 (antibody, V domains shown, V regions on human Ig constant parts; also called AB27_87) VH: QSLEESGGDLVKPGASLTLTCTASEFDFNNNAMCWVRQAPGKGLEWIACIYIGNGGTWYASWAKGRFTISKSSSTTVTLQVTSLTAADTATYFCARGENIAYFILWGPGTLVTVSS VL: DIVMTQTPASVSAAVGGTVTIKCQASQSINSWLSWYQQKPGQPPKLLIYKASTLASGVPSRFKGSGSGTEFTLTISDLESADAATYYCQGYYYYSSSNYASNAFGGGTEVVVK
Given back: 3.37

Asked: Complete the entry with ELISA [abs. corr.] for P018.S.06.A.A03 (antibody, V domains shown, V regions on human Ig constant parts; also called AB27_96) VH: QSVEESGGRLVTPGTPLTLTCTVSGFSLSSNAMTWVRQAPGKGLEWIGFINTGSSTYYASWAKGRFTISKTSTTVDLKITSPTTEDTATYFCARDADDSRGYYWGLWGQGTLVTVSS VL: AYDMTQTPASVPAAVGGTVTIKCQASEDIYSLLAWYQQKPGQPPKLLIYDASDLASGVPSRFRGSGSGTDYTLTISGVESADAATYYCQQGYTTYTTVDNIFGGGTEVVVK
Given back: 3.41

Asked: Complete the entry with ELISA [abs. corr.] for P018.S.03.A.A02 (antibody, V domains shown, V regions on human Ig constant parts; also called AB27_41) VH: QSVEESGGRLVTPGTPLTLTCTVSGFSLSSYDMTWVRQAPGEGLEWIGYINTDTTTYYASWAKGRFTISRTSTTVDLEITSPTTEDTATYFCARGNDPIYIDLWGQGTLVTVSS VL: AAVLTQTPSPVSAAVGGTVSISCQSSKSVINNNWLGWYQQKPGQPPKLLISYASTLASGVPSRFSGSGSGTQFTLTISDVQSDDAATYYCAGAYSPDSENAFGGGTEVVLK
Given back: 3.44
